Where these numbers come from: patent US20100120763A1

Quick reference: melting point of the listed items.

Guide cases for melting point, answers given:
> print(dat)
                             moleculesmiles  experimentalvalue
1                   Cc1ncn2c1nnc1ccc(F)cc12             230 °C
2              CCCc1nc(C)c2nnc3ccc(F)cc3n12  124.5 to 126.5 °C
3  Cc1nc(-c2ccccc2Cl)n2c1nnc1ccc(OCc3ccc(F)cc3)cc12      174 to 177 °C
4  Cc1nc(-c2ccccc2Cl)n2c1nnc1ccc(-n3ccnc3)cc12        95 to 98 °C

Turning now to a further compound:
Which measured melting point value corresponds to Cc1nc(-c2cc(C(F)(F)F)ccc2F)n2c1nnc1ccc(-c3cc(C(F)(F)F)ccc3F)cc12 ?
155 to 158 °C

###

Recorded melting point, one value per entry.

Below are worked cases with known answers.
> print(dat)
                                   compound  experimentalvalue
1  Cc1nc(-c2cc(OC(C)C)ccc2F)n2c1nnc1ccc(-c3cc(OC(C)C)ccc3F)cc12    160.5 to 162 °C
2  COc1cc2nnc3c(C)nc(Br)n3c2cc1OC [Example 54]             200 °C
3  Cc1nc(-c2cc(OC(C)C)ccc2F)n2c1nnc1ccc(F)cc12 [Example 20]    148 to 150.5 °C
4  CCCc1nc(C)c2nnc3cc(OC)ccc3n12 [Example 2]      159 to 162 °C
5  Cc1nc(-c2ccccc2Cl)n2c1nnc1cc(F)c(F)cc12 [Example 58]      157 to 159 °C

Switching to the query record.
Reported melting point, compound COc1cc2nnc3c(C)nc(-c4ccccn4)n3c2cc1OC [Example 50] : ____
199 to 202 °C

###

- testedTarget: PDE2A (Homo sapiens)
- Construct: made in house; host or cells: SF21 insect cells (baculovirus)
- Sequence (O00408 whole entry): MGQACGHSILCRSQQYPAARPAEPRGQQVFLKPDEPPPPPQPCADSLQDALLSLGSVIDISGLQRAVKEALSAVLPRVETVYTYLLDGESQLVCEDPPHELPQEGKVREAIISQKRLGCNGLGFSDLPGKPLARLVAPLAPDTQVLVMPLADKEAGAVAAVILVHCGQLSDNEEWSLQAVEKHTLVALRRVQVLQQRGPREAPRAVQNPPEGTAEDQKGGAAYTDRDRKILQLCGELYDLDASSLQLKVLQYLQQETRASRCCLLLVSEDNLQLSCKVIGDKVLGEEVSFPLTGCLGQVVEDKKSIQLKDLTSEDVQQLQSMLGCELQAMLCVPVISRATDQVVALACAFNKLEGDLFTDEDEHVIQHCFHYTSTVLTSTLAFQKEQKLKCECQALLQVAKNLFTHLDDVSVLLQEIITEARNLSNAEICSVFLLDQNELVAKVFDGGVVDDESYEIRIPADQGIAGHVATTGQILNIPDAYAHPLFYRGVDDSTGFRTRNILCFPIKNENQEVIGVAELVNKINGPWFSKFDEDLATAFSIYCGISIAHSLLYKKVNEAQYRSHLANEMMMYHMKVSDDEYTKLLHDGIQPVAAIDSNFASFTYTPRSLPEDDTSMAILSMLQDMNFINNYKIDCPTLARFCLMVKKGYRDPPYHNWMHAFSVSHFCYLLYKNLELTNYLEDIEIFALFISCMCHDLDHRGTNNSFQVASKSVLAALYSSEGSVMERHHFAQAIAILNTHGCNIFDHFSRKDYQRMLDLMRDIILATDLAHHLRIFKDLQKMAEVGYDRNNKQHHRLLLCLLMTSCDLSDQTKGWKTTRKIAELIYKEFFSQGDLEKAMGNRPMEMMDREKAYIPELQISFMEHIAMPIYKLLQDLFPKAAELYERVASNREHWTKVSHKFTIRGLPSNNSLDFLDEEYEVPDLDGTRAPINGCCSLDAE
- experimentNotes: Inhibition of recombinant PDE2A (expressed in baculovirus/SF21-cells), [3H]-cAMP SPA
- Assay type: biochemical
recordedMetric: pIC50
Keep it numeric: pIC50 is minus log10 of the concentration in mol/L.

> print(dat)
                                   compound          testedtarget  experimentalvalue
1  COc1cc(F)c2nnc3c(C)nc(-c4cc(F)ccc4Cl)n3c2c1  PDE2A (Homo sapiens)               8.03

Would you kindly share the measured pIC50 for CCC(C)c1nc(C)c2nnc3ccc(F)cc3n12 (stereo not shown) ?
5.82

###

- testedTarget: PDE10A (Homo sapiens, UniProt Q9Y233)
- Construct: made in house; host or cells: SF21 insect cells (baculovirus)
- Sequence (Q9Y233 1-779 isoform Q9Y233-1): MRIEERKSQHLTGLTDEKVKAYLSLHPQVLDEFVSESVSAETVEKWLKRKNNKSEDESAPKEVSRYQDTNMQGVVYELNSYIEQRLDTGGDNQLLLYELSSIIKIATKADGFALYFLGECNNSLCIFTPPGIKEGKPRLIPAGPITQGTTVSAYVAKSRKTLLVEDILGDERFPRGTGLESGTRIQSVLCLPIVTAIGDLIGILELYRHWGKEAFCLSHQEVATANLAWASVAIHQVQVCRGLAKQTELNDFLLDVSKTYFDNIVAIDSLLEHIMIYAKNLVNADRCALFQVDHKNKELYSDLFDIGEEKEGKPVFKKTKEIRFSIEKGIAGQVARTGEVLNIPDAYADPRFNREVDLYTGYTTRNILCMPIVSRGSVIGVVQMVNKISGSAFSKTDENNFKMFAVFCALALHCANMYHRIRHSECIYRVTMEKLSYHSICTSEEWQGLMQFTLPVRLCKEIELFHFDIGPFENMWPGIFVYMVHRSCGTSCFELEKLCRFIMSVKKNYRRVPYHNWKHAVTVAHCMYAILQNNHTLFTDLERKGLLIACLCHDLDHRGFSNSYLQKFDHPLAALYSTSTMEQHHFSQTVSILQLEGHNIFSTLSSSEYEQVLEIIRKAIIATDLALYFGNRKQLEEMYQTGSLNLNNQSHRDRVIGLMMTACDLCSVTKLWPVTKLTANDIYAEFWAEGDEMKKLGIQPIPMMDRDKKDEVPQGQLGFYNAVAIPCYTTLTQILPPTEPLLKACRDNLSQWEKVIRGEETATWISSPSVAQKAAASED
- experimentNotes: Inhibition of recombinant PDE10A (baculovirus/SF21 system), [3H]-cAMP SPA
- Format: biochemical
- conditionsUsed: recombinant PDE10A1, cytosolic; 0.1 μM [3H]-cAMP, 37° C., 30 minutes; read-out: PDE10A IC50
recordedMetric: pIC50
Formally, pIC50 is defined as -log10 of the concentration c, with c in mol/L.

> print(dat)
                                   molecule  recordedmetric  experimentalvalue
1  COc1cc(OCc2ccccc2)cc2c1nnc1c(C)nc(-c3cnccc3C)n12 [Example 157]           pIC50               8.27
2  COc1cc(F)cc2c1nnc1c(C)nc(-c3c(C)n[nH]c3C)n12 [Example 124]           pIC50               7.89

Now turn to the next molecule.
Sample Cc1nc(-c2cc(Cl)ccc2Cl)n2c1nnc1ccc(N3CCOCC3)cc12 [Example 181] — what was its pIC50?
7.61
